test: Clearance study, liver microsomes (mice); conditions: mouse, pH 7.4
readout_name: microsomal CLint at 1 μM (µL/min/mg)

INSERT INTO measurements (compound, reported_value) VALUES
  ('O=C(NC1CCCCC1)c1ccc2c(c1)N=C(c1cccc(Cl)c1)c1ccccc1S2 [drawing 1675]', 58),
  ('O=C(NC1CCCCC1)c1ccc2c(c1)N=C(c1ccc(F)cc1)c1ccccc1S2 [drawing 1683]', 62),
  ('O=C(NCc1cccc(Cl)c1)c1ccc2c(c1)N=C(c1ccc(F)cc1)c1ccccc1S2(=O)=O [drawing 1670]', 32),
  ('O=C(NCc1ccccc1Cl)c1ccc2c(c1)N=C(c1cccc(Cl)c1)c1ccccc1S2 [drawing 1674]', 124),
  ('CCCCNC(=O)c1ccc2c(c1)N=C(c1ccc(Cl)cc1)c1sccc1S2 [drawing 1717]', 79),
  ('O=C(NCc1ccco1)c1ccc2c(c1)N=C(c1ccc(Cl)s1)c1ccccc1S2 [drawing 1656]', 127),
  ('CC(C)CNC(=O)c1ccc2c(c1)N=C(c1ccc(Cl)s1)c1ccccc1S2 [drawing 1681]', 412),
  ('CC(C)CNC(=O)c1ccc2c(c1)N=C(c1ccc(Cl)c(Cl)c1)c1ccccc1S2 [drawing 1671]', 107),
  ('O=C(NCc1cccnc1)c1ccc2c(c1)N=C(c1ccc(Br)cc1)c1ccccc1S2 [drawing 1728]', 83),
  ('CCCCNC(=O)c1ccc2c(c1)N=C(c1ccc(Cl)cc1)c1ccccc1[S+]2[O-] (stereo not drawn) [drawing 1736]', 53),
  ('O=C(NCc1ccccn1)c1ccc2c(c1)N=C(c1ccc(Cl)cc1)c1ccccc1S2 [drawing 1760]', 73),
  ('O=C(NCc1ccco1)c1ccc2c(c1)N=C(c1cccc(Cl)c1)c1ccccc1S2 [drawing 1684]', 133),
  ('CCCCNC(=O)c1ccc2c(c1)N=C(c1ccc(Cl)s1)c1ccccc1S2 [drawing 1669]', 266),
  ('CCCCNC(=O)c1ccc2c(c1)N=C(c1cccc(F)c1)c1ccccc1S2 [drawing 1700]', 647),
  ('O=C(NCCc1cccnc1)c1ccc2c(c1)N=C(c1ccc(Cl)c(Cl)c1)c1ccccc1S2 [drawing 1668]', 82),
  ('O=C(NN1CCCCCC1)c1ccc2c(c1)N=C(c1cccc(Cl)c1)c1ccccc1S2 [drawing 1689]', 124),
  ('O=C(NCc1cccs1)c1ccc2c(c1)N=C(c1ccc(F)cc1)c1ccccc1S2 [drawing 1659]', 171),
  ('O=C(NCc1cccs1)c1ccc2c(c1)N=C(c1ccc(Cl)s1)c1ccccc1S2 [drawing 1723]', 184),
  ('O=C(NN1CCCCC1)c1ccc2c(c1)N=C(c1ccc(Cl)cc1)c1ccccc1S2 [drawing 1676]', 126),
  ('O=C(NCc1cccs1)c1ccc2c(c1)N=C(c1ccccc1F)c1ccccc1S2 [drawing 1744]', 386),
  ('O=C(NN1CCCCCC1)c1ccc2c(c1)N=C(c1ccc(Cl)s1)c1ccccc1S2 [drawing 1687]', 360),
  ('O=C(NCc1ccccc1)c1ccc2c(c1)N=C(c1cccc(Br)c1)c1ccccc1S2', 566),
  ('O=C(NCc1cccc(Cl)c1)c1ccc2c(c1)N=C(c1ccc(Cl)cc1)c1ccccc1S2 [drawing 1725]', 238),
  ('CC(C)CCNC(=O)c1ccc2c(c1)N=C(c1cccc(Cl)c1)c1ccccc1S2 [drawing 1665]', 249),
  ('O=C(NCc1ccc(F)cc1)c1ccc2c(c1)N=C(c1ccc(Cl)cc1)c1ccccc1[S+]2[O-] (stereo not drawn) [drawing 1772]', 37),
  ('CC(C)CNC(=O)c1ccc2c(c1)N=C(c1ccc(F)cc1)c1ccccc1S2 [drawing 1761]', 354),
  ('O=C(NN1CCCCC1)c1ccc2c(c1)N=C(c1ccc(Cl)cn1)c1ccccc1S2 [drawing 1786]', 416),
  ('CCCCNC(=O)c1ccc2c(c1)N=C(c1ccc(Cl)cn1)c1ccccc1S2 [drawing 1704]', 477),
  ('Cc1ccsc1C1=Nc2cc(C(=O)NCc3cccs3)ccc2Sc2ccccc21 [drawing 1781]', 852),
  ('O=C(NCc1cccnc1)c1ccc2c(c1)N=C(c1ccc(Cl)cc1)c1ccccc1S2 [drawing 1756]', 92),
  ('Cc1ccsc1C1=Nc2cc(C(=O)NN3CCCCC3)ccc2Sc2ccccc21 [drawing 1730]', 385),
  ('O=C(NN1CCCCC1)c1ccc2c(c1)N=C(C1CCCCC1)c1ccccc1S2 [drawing 1695]', 349),
  ('O=C(NCc1cccs1)c1ccc2c(c1)N=C(c1cccc(F)c1)c1ccccc1S2 [drawing 1658]', 238);
